molecular target: Mucolipin-3 (Homo sapiens) (UniProt Q8TDD5); experiment: human TRPML3 channel agonists, primary screen, cell-based, HEK293 TRPML3-YFP, Fluo-8 calcium fluorescence, 3 µM (AID 1448); conditions: at 3 µM, 100% = the carbachol control signal
Sequence (Q8TDD5 whole entry, looked up): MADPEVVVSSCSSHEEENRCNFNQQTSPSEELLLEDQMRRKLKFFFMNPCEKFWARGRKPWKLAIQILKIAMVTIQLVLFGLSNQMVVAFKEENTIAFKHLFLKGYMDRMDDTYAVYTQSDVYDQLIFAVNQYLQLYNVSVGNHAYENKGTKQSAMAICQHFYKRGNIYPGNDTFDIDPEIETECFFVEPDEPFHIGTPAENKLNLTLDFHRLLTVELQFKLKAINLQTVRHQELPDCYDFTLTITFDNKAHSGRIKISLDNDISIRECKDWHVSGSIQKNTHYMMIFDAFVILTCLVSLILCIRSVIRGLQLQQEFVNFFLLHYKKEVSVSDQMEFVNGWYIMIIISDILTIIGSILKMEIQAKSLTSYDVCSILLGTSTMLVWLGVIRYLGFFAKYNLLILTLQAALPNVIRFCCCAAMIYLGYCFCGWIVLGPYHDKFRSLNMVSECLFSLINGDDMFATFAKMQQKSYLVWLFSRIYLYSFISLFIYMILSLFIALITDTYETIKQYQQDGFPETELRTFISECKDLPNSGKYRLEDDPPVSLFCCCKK
Out of some 220,000 compounds screened, about 630 (0.29%) were called active.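 The calls were made as follows: active = activation above its plate's cutoff, the mean activation of the plate's test wells plus 3 SD (cut at about 12% in these data); inactive = the rest.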 Many of the other results were omitted from the sample, so actives are more common in it than they were.
Please state which outcome applies, choosing from yes (active), no (inactive)

Answered cases to consult:
[
  {
    "molecule": "CCC(C)(C)c1ccc(OCC(=O)N(C)C)c(C(C)(C)CC)c1",
    "assigned label": "no"
  },
  {
    "molecule": "Cn1ccc(NC(=O)Nc2ccc(Cl)cc2)n1",
    "assigned label": "no"
  },
  {
    "molecule": "Cc1ccc2c(c1)-c1c(ssc1=S)C(C)(C)N2C(=O)CN1C(=O)c2ccccc2C1=O",
    "assigned label": "no"
  },
  {
    "molecule": "N#C/C(=C/c1ccc(-c2ccccc2[N+](=O)[O-])o1)C(=O)NCCN1CCCCC1",
    "assigned label": "no"
  },
  {
    "molecule": "O=C(NCCN1CCOCC1)c1ccc2c(c1)N(Cc1ccc(Cl)cc1)CCS2",
    "assigned label": "no"
  }
]

## Task Look up the recorded call for Cc1cc2c(cc1C)N(C(=O)CN1C(=O)c3ccccc3C1=O)C(C)(C)c1ssc(=S)c1-2 in this test.
## Result yes

## Task Look up the recorded call for CCN(C(=O)Cc1nc(N)n[nH]1)C1(C(=O)Nc2ccccc2)CCCCC1 in this test.
## Result no

## Task Look up the recorded call for O=C(NCCc1c[nH]c2ccccc12)C(=O)NCC1CCCO1 (stereo unspecified) in this test.
## Result no

## Task Look up the recorded call for CC(C)CCC(C)NC(=O)c1ccc2nccnc2c1 (stereo unspecified) in this test.
## Result no

## Task Look up the recorded call for COc1cc(NC(=O)c2cccnc2SC)cc(OC)c1 in this test.
## Result no

## Task Look up the recorded call for Oc1ccc2ccc3cccc[n+]3c2c1 in this test.
## Result yes

###

target: Mucolipin-3 (Homo sapiens) (UniProt Q8TDD5); assay: human TRPML3 channel agonists, primary screen, cell-based, HEK293 TRPML3-YFP, Fluo-8 calcium fluorescence, 3 µM (AID 1448); details: at 3 µM, hits give high values, 100% = the carbachol control signal
Out of some 220,000 compounds screened, about 630 (0.29%) were called active. What follows is part of a selection rich in actives, with near analogues and random picks from the rest.
Record form. Attribute: activation. Fill in for each entry.
Numbers only, in %.

As a guide, the following entries are already answered.
[
  {
    "compound": "Cc1ccc(C2=N/C(=C\\c3ccc(OS(=O)(=O)c4ccc(C)cc4)cc3)C(=O)O2)cc1",
    "test system": "Mucolipin-3 (Homo sapiens) (UniProt Q8TDD5)",
    "result units": "%",
    "observed measurement": 0.55
  },
  {
    "compound": "Cc1ccc(CN(C)CC(=O)Nc2cccc([N+](=O)[O-])c2)o1",
    "test system": "Mucolipin-3 (Homo sapiens) (UniProt Q8TDD5)",
    "result units": "%",
    "observed measurement": -0.52
  },
  {
    "compound": "Cc1ccc(C(=O)N2CCN(S(=O)(=O)N3CCOCC3)CC2)cc1",
    "test system": "Mucolipin-3 (Homo sapiens) (UniProt Q8TDD5)",
    "result units": "%",
    "observed measurement": 0.24
  },
  {
    "compound": "Cc1cc(NC(=O)CCC(=O)N(CC(=O)NCC2CCCO2)c2ccccc2C)no1 (configuration not stated)",
    "test system": "Mucolipin-3 (Homo sapiens) (UniProt Q8TDD5)",
    "result units": "%",
    "observed measurement": -0.47
  },
  {
    "compound": "c1ccc2c(CSCc3nc4ccccc4[nH]3)cccc2c1",
    "test system": "Mucolipin-3 (Homo sapiens) (UniProt Q8TDD5)",
    "result units": "%",
    "observed measurement": 0.61
  }
]

State recorded activation for all listed compounds.
1. CN(C)c1ccnc2sc(C(=O)c3ccccc3)c(N)c12
2. CC1(C)CCCC2=C1CC1C(=O)N(c3ccccc3)C(=O)C1C2 (configuration not stated)
3. Cc1cc(C)cc(C(=O)NCC(=O)OCC(=O)N2CCCCC2)c1

## Result
[-0.55, 22.9, 0.67]

###

target: Mucolipin-3 (Homo sapiens) (UniProt Q8TDD5); assay: human TRPML3 channel agonists, primary screen, cell-based, HEK293 TRPML3-YFP, Fluo-8 calcium fluorescence, 3 µM (AID 1448); conditions: at 3 µM, hits give high values, 100% = the carbachol control signal
Out of some 220,000 compounds screened, about 630 (0.29%) were called active. The entries come from a sample that favours actives as a whole.
Classification field: enter Y for activation values not below 1%, N for values below it.

Answered cases to consult:
[
  {
    "compound": "Cc1nnc(N/N=C/C2CC=CCC2)[nH]c1=O (stereo unspecified)",
    "assigned label": "Y"
  },
  {
    "compound": "CN(Cc1cc2cc(F)ccc2[nH]1)Cc1nc(-c2cnccn2)no1",
    "assigned label": "N"
  },
  {
    "compound": "COc1ccc(-c2noc(-c3ccc(C)cc3)n2)cc1",
    "assigned label": "Y"
  },
  {
    "compound": "COc1cc(NC(=O)c2ccccc2NS(=O)(=O)c2ccc(Cl)s2)cc(OC)c1",
    "assigned label": "Y"
  },
  {
    "compound": "O=C(Nc1nc2ccc([N+](=O)[O-])cc2s1)c1ccncc1",
    "assigned label": "Y"
  }
]

## Task Item O=C(NNS(=O)(=O)Cc1ccccc1)c1ccc([N+](=O)[O-])cc1 with activation of 1% or above?
## Result N

## Task Item CN(Cc1nc(-c2cnccn2)no1)Cc1n[nH]c2c1CCCCC2 with activation of 1% or above?
## Result N

###

target: Mucolipin-3 (Homo sapiens); assay: human TRPML3 channel agonists, primary screen, cell-based, HEK293 TRPML3-YFP, Fluo-8 calcium fluorescence, 3 µM (AID 1448); conditions: at 3 µM, 100% = the carbachol control signal
Among all 220,000 compounds or so, about 630 (0.29%) were called active.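 How the source made its calls: active means activation above its plate's cutoff, the mean activation of the plate's test wells plus 3 SD (cut at about 12% in these data); inactive means the rest.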 The sample as a whole holds a higher share of actives than the screen did.
Please state which outcome applies, choosing from True = active, False = inactive

## Task Look up the recorded call for COC(=O)CCC(=O)N1CCCC(CO)(Cc2ccccc2)C1 (configuration not stated) in this test.
## Result False

## Task Look up the recorded call for O=C(COC(=O)CC1CC2CCC1C2)NC(=O)NC1CCCC1 (configuration not stated) in this test.
## Result False

## Task Look up the recorded call for O=C1NCC(=O)N(Cc2ccccc2)/C1=C/c1ccccc1 in this test.
## Result False

## Task Look up the recorded call for O=C(Nc1ccccc1C(=O)O)c1cc(S(=O)(=O)N2CCCCC2)cs1 in this test.
## Result False

## Task Look up the recorded call for Cc1cccc(C)c1N1CCN(S(=O)(=O)N2CCOCC2)CC1 in this test.
## Result False

## Task Look up the recorded call for OCC(O)CN(c1ccccc1)c1ccccc1 (configuration not stated) in this test.
## Result False

###

biological target: Mucolipin-3 (Homo sapiens) (UniProt Q8TDD5); experiment: human TRPML3 channel agonists, primary screen, cell-based, HEK293 TRPML3-YFP, Fluo-8 calcium fluorescence, 3 µM (AID 1448); details: at 3 µM, 100% = the carbachol control signal
The whole screen tested about 220,000 compounds, of which about 630 (0.29%) were called active.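 How the source made its calls: active means activation above its plate's cutoff, the mean activation of the plate's test wells plus 3 SD (cut at about 12% in these data); inactive means the rest.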 The sample holds actives, similar compounds and a random draw of the others, so the mix is not that of the screen.
Please state which outcome applies, choosing from label 1 for active, label 0 for inactive

Answered cases to consult:
[
  {
    "compound": "CC(=O)Oc1ccccc1C(=O)Nc1ncc([N+](=O)[O-])s1",
    "assigned label": "label 1"
  },
  {
    "compound": "O=C(CCc1ccccc1)Nc1ncc([N+](=O)[O-])s1",
    "assigned label": "label 0"
  },
  {
    "compound": "COc1cc(/C=C(\\C#N)c2nc3c(s2)CC(C)CC3)ccc1O (configuration not stated)",
    "assigned label": "label 1"
  },
  {
    "compound": "CC(C)Cc1nc(Cl)c(C#N)c2c1CCC2",
    "assigned label": "label 0"
  },
  {
    "compound": "Cc1[nH]n(-c2ccccc2)c(=O)c1N=Nc1ccccc1C(=O)N1CCCCC1",
    "assigned label": "label 0"
  },
  {
    "compound": "COc1cc(/C=N/Nc2nc3ccccc3s2)ccc1O",
    "assigned label": "label 0"
  }
]

## Task Look up the recorded call for CCN(CC)c1ccc(C(=O)c2cnc(/N=C/N(C)C)s2)cc1 in this test.
## Result label 0

## Task Look up the recorded call for COc1ccc(OC)c(NC(=S)N2CCc3ccccc3C2)c1 in this test.
## Result label 0

## Task Look up the recorded call for COc1ccccc1Cn1c(C)nnc1-c1cnn(C)c1N in this test.
## Result label 0

src = PubChem BioAssay AID1448
